target: IMPDH1(595)-S477D (Homo sapiens, UniProt P20839, S477D); experiment: IMPDH1 activity assay, GTP inhibition
Sequence (P20839 1-509 S477D): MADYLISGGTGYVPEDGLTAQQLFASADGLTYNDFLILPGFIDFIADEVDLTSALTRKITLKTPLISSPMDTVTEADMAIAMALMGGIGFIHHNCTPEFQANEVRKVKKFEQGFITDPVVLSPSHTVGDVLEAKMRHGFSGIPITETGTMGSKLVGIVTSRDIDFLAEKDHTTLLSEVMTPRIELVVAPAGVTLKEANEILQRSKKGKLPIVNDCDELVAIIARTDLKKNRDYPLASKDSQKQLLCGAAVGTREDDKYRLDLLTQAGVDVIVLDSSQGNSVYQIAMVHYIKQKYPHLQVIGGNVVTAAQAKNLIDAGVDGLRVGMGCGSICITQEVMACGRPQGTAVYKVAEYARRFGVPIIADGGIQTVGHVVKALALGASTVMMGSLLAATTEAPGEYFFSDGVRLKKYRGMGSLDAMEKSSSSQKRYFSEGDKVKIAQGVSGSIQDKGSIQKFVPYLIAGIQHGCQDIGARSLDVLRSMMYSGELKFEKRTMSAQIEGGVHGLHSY
measured quantity: IC50 (µM)

INSERT INTO measurements (compound, unit_text, number) VALUES
  ('Nc1nc2c(ncn2[C@@H]2O[C@H](COP(=O)(O)OP(=O)(O)OP(=O)(O)O)[C@@H](O)[C@H]2O)c(=O)[nH]1 [GTP, guanosine triphosphate]', 'µM', 603);

====

target: IMPDH1(546)-Y12A-S477D (Homo sapiens, UniProt P20839, S477D/Y12A); experiment: IMPDH1 activity assay, GTP inhibition
Sequence (P20839 1-509 Y12A/S477D): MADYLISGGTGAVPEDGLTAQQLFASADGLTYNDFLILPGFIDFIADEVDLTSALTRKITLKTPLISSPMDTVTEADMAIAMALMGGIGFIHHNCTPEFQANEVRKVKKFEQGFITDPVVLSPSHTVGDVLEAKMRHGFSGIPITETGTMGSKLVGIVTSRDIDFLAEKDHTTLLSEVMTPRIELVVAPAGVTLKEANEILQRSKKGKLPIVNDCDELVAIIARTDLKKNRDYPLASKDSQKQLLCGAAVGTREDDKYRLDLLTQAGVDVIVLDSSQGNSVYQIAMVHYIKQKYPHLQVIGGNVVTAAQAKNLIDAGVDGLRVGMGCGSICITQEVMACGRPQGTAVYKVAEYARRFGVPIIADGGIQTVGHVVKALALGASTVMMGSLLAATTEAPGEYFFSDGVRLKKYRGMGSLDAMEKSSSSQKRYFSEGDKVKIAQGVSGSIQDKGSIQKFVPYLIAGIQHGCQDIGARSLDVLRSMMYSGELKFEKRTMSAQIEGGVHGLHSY
measured quantity: IC50 (µM)

INSERT INTO assay_data (compound, measured_quantity, unit_text, number) VALUES
  ('Nc1nc2c(ncn2[C@@H]2O[C@H](COP(=O)(O)OP(=O)(O)OP(=O)(O)O)[C@@H](O)[C@H]2O)c(=O)[nH]1 [GTP, guanosine triphosphate]', 'IC50', 'µM', 458);
